Assay: Quantitative high throughput screen for delayed death inhibitors of the malarial parasite plastid, 48 hour incubation (AID 488752); further: nearly all actives have a fitted effect of over 65% in size
Details: Plasmodium falciparum growth; series mostly up to 28.7 µM
Records with an inconclusive call do not appear. Activity calls are given as the source filed them. The call rests on the fitted dose curve; in most records, active means well fitted inhibition curve with a large enough effect; inconclusive means small, poorly fitted or top-dose-only effect, or effect the other way; inactive means flat fitted curve, though single readings scatter.
One label from this list, please: yes = active, no = inactive

Consider the worked cases shown below.
molecule=CCCN(CCC)[C@@H]1CCc2ccc(O)cc2C1 class=no
molecule=CCCN1CCO[C@@H]2c3cc(O)ccc3OC[C@H]21 class=no
molecule="C[N+]1(C)C2CCC1CC(OC(=O)C(CO)c1ccccc1)C2 (configuration not stated)" class=no

Can you look up the reported call for C#CCOC(=O)C1=CCCN(C)C1 for me? no

Can you look up the reported call for CCCN1CCC[C@H](c2cccc(O)c2)C1 for me? no

Can you look up the reported call for CC[C@@H]1C(=O)OC[C@@H]1Cc1cncn1C for me? no

Can you look up the reported call for CC[C@@]1(O)C(=O)OCc2c1cc1n(c2=O)Cc2cc3ccccc3nc2-1 for me? yes

Can you look up the reported call for C[C@]12N[C@H](Cc3ccccc31)c1ccccc12 for me? no

Can you look up the reported call for Clc1cnc(Oc2ccc(Oc3ncc(Cl)cc3Cl)cc2)c(Cl)c1 for me? no

Can you look up the reported call for C=CCN1CC[C@]23CCCCC2[C@H]1Cc1ccc(O)cc13 (some centres not stated) for me? no

Can you look up the reported call for S=C(NC1CCCCC1)N1CCC(c2cnc[nH]2)CC1 for me? no

Can you look up the reported call for CS(=N)(=O)CC[C@H](N)C(=O)O (some centres not stated) for me? no

====

Test: Quantitative High-Throughput drug screen in 47 multiple myeloma cell lines against the NCATS MIPE library collection: FR4_PLB cell viability assay (AID 1918924;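 further: 100% = DMSO-treated cells and 0% = wells with media only; nearly all actives have a fitted effect of over 35% in size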)
Details: FR4_PLB myeloma cells viability, CellTiter-Glo ATP, 48 h; series mostly up to 45.8 µM
Records with an inconclusive call do not appear. The source made the active and inactive calls. The call rests on the fitted dose curve; in most records, active means well fitted cell-killing curve with a large enough effect; inconclusive means small, poorly fitted or top-dose-only effect, or effect the other way; inactive means no such curve, though single readings can be large or run the other way.
readout-type: outcome

molecule="Cc1c(N)nc([C@H](CC(N)=O)NC[C@@H](N)C(N)=O)nc1C(=O)N[C@H](C(=O)N[C@@H](C)[C@H](O)[C@@H](C)C(=O)N[C@@H](C(=O)NCCc1nc(-c2nc(C(=O)NCCC[S+](C)C)cs2)cs1)[C@@H](C)O)C(O[C@H]1O[C@H](CO)[C@H](O)[C@@H](O)[C@@H]1O[C@H]1O[C@H](CO)[C@@H](O)[C@H](OC(N)=O)[C@H]1O)c1cnc[nH]1 (some centres not stated)" measured=inactive
molecule="CCCC[N+]1(C)[C@H]2CC(OC(=O)[C@H](CO)c3ccccc3)C[C@H]1[C@H]1O[C@H]12 (some centres not stated)" measured=inactive

====

Test system: MKL-1
Assay: qHTS assay to identify novel small-molecules to repurpose for Merkel cell carcinoma treatment (AID 1296009); further: nearly all actives have a fitted effect of over 60% in size; further: potency means the concentration at half of the fitted maximal effect
Conditions: MCC and control cell lines, CellTiter-Glo viability, 72 h; series mostly up to 46 µM
Inconclusive results are not listed. The source made the active and inactive calls. Calls come from the whole dose curve; as a rule, active = well fitted inhibition curve with a large enough effect; inconclusive = small, poorly fitted or top-dose-only effect; inactive = flat fitted curve, though single readings scatter.
readout-type: Potency

Below, 4 compounds whose answers are already recorded.
compound="CCNC(=O)CC1N=C(c2ccc(Cl)cc2)c2cc(OC)ccc2-n2c(C)nnc21 (stereo not given)" measured=inactive
compound=CC(=Cc1csc(C)n1)[C@@H]1C[C@H]2O[C@]2(C)CCC[C@H](C)[C@@H](O)[C@@H](C)C(=O)C(C)(C)[C@@H](O)CC(=O)O1 measured=inactive
compound=CC1(N2CCC(n3c([C@@H]4CCCNC4)nc4ccccc43)CC2)CCCCCCC1 measured="23.5 µM (active)"
compound=Cc1cc(O)ccc1Cl measured=inactive

# ---- query compound ----
Report Potency from MKL-1 testing of CS(=O)(=O)c1ccc(C(=O)C2C(=O)CCCC2=O)c([N+](=O)[O-])c1 inactive

====

Test system: MCC-13
Experiment: qHTS assay to identify novel small-molecules to repurpose for Merkel cell carcinoma treatment (AID 1296009); further: nearly all actives have a fitted effect of over 60% in size
Conditions: MCC and control cell lines, CellTiter-Glo viability, 72 h; series mostly up to 46 µM
Results filed as inconclusive are left out. The source made the active and inactive calls. Calls follow the shape of the dose curve; as a rule, active = well fitted inhibition curve with a large enough effect; inconclusive = small, poorly fitted or top-dose-only effect; inactive = flat fitted curve, though single readings scatter.
One label from this list, please: 1.0 = active, 0.0 = inactive

Consider the worked cases shown below.
compound=COc1ccc(C(c2ccc(OC)cc2)C(Cl)(Cl)Cl)cc1 class=0.0
compound="CCCCC(CC)COC(=O)c1ccccc1C(=O)OCC(CC)CCCC (configuration not stated)" class=0.0
compound=C[C@@H]1CC[C@H]2[C@@H](C)C(=O)O[C@@H]3O[C@@]4(C)CC[C@H]1[C@]32OO4 class=0.0

Can you look up the reported call for CC(C)(C)NC[C@H](O)c1ccc(O)cc1Cl for me? 0.0

Can you look up the reported call for CCCN1CCO[C@@H]2c3cc(O)ccc3OC[C@@H]21 for me? 0.0

Can you look up the reported call for CC[C@@H](C(N)=O)N1CCCC1=O for me? 0.0

Can you look up the reported call for O=C(O)COc1nc(Cl)c(Cl)cc1Cl for me? 0.0

====

Target: Voltage-gated inwardly rectifying potassium channel KCNH2 (Homo sapiens) (UniProt Q12809)
Sequence (Q12809 whole entry, looked up): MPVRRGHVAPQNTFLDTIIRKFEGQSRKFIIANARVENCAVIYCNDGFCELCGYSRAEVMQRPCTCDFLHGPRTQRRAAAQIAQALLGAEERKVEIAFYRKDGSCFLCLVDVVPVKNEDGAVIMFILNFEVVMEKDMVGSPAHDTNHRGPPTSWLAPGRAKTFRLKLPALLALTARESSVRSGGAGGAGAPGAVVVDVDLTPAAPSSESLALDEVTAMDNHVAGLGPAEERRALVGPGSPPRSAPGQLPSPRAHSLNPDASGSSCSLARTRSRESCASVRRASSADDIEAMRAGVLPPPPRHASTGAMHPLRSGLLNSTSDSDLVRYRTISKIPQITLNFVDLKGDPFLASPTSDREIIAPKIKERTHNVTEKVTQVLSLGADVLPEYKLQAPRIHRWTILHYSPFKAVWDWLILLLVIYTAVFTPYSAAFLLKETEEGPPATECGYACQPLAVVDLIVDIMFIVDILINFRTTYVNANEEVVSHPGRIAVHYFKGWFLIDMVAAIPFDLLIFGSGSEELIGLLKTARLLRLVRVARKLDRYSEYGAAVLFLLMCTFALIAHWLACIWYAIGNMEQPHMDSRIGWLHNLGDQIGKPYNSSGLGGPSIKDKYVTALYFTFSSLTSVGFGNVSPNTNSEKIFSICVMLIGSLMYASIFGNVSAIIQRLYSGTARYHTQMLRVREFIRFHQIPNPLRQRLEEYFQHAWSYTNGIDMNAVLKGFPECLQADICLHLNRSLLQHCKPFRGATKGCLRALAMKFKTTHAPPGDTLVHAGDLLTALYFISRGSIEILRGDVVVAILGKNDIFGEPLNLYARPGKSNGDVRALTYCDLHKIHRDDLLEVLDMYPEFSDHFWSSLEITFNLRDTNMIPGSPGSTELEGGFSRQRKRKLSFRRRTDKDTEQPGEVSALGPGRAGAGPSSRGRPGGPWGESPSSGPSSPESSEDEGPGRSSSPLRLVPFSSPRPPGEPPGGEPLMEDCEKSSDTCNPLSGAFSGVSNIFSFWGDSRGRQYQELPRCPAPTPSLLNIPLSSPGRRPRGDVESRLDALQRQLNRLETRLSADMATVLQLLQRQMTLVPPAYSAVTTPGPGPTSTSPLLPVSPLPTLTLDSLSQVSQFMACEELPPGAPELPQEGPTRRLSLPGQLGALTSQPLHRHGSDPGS
Assay: qHTS Assay for Small Molecule Inhibitors of the Human hERG Channel Activity (AID 588834);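 further: lower thallium flux fluorescence means stronger hERG block; nearly all actives have a fitted effect of over 50% in size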
Details: U2OS BacMam hERG, FluxOR thallium flux fluorescence; series mostly up to 46.1 µM
Inconclusive results are not listed. Calls of active or inactive are those of the source. Calls come from the whole dose curve; as a rule, active = well fitted inhibition curve with a large enough effect; inconclusive = small, poorly fitted or top-dose-only effect; inactive = flat fitted curve, though single readings scatter.
One label from this list, please: Y = active, N = inactive

Consider the worked cases shown below.
compound=O=C(O)COc1ccccc1 class=N
compound=CN[C@@H]1C[C@@H](c2ccc(Cl)c(Cl)c2)c2ccccc21 class=Y
compound=Nc1ccc(Cl)cc1N class=Y
compound=O=C(O)[C@@H]1CCN1 class=N
compound="Clc1ccc(C(c2ccc(Cl)cc2)n2cc[n+](CC(OCc3ccc(Cl)cc3Cl)c3ccc(Cl)cc3Cl)c2)cc1 (stereo unspecified)" class=Y
compound="NC(CP(=O)(O)O)C(=O)O (stereo unspecified)" class=N
compound="NC(N)=NOCCC(N)C(=O)O (stereo unspecified)" class=N
compound=O=C(O)C(Cl)Cl class=N
compound=CN[C@@H](C)[C@H](O)c1ccccc1 class=N
compound=C[C@]12CCC(=O)C(O)=C1CC[C@@H]1[C@H]3CCC(=O)[C@@]3(C)CC[C@@H]12 class=N

Can you look up the reported call for CCCCC(CC)COC(=O)c1ccccc1C(=O)OCC(CC)CCCC (stereo unspecified) for me? N

Can you look up the reported call for NCCc1c[nH]c2ccc(O)cc12 for me? N

====

Assay: qHTS of pediatric cancer cell lines to identify multiple opportunities for drug repurposing: Primary screen for A673 cells (AID 1347092); further: on the % scale 0 is the no-effect control and ±100 the full control effect; nearly all actives have a fitted effect of over 45% in size
Conditions: A673 Ewing sarcoma viability, CellTiter-Glo ATP luminescence, 48 h; series mostly up to 46 µM
Records with an inconclusive call do not appear. Activity calls are given as the source filed them. Calls come from the whole dose curve; as a rule, active = well fitted cell-killing curve with a large enough effect; inconclusive = small, poorly fitted or top-dose-only effect; inactive = no such curve, though single readings can be large or run the other way.
One label from this list, please: y = active, n = inactive

Can you look up the reported call for Fc1cc(Br)ccc1CBr for me? n

====

Test: High-throughput drug toxicity screening in the BPDCN cell line Cal-1 (AID 1224825);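 further: cells exposed to compounds for 48 h; 100% = DMSO and 0% = bortezomib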
Details: Cal-1 BPDCN cell viability, qHTS; at 45.8 µM (top of the series)
Listing of recorded viability (% of control) by entry.
Unit % implied. Number only.

compound=O=S(=O)(F)Cc1ccccc1 measured=97.3

Specify reported viability (% of control) for the compound shown: Cc1ccccc1-n1c(Cn2cnc3c(N)ncnc32)nc2cccc(C)c2c1=O 9.3

Specify reported viability (% of control) for the compound shown: CC[C@@H](C(N)=O)N1CCCC1=O 113

Specify reported viability (% of control) for the compound shown: C[C@]12CCC(=O)C(O)=C1CC[C@@H]1[C@H]3CCC(=O)[C@@]3(C)CC[C@@H]12 116

Specify reported viability (% of control) for the compound shown: O=C(N[C@@H](COc1ccc2[nH]c(=O)[nH]c2c1)c1ccccc1)c1cccn(Cc2ccc(F)c(F)c2)c1=O 36.8

Specify reported viability (% of control) for the compound shown: N=c1c2c(-c3ccccc3)c(-c3ccccc3)n(Cc3ccccc3)c2ncn1C1CCC(O)CC1 (centres undefined) 11.7

Specify reported viability (% of control) for the compound shown: COc1cccc2c1[C@]13CCN(CC4CC4)[C@H](C2)[C@]1(OC)CCC(=O)C3 111

Specify reported viability (% of control) for the compound shown: COc1ccc(CC2NCCc3cc(OC)c(OC)cc32)cc1OC (centres undefined) 102

Specify reported viability (% of control) for the compound shown: c1ccc(CCCN2CCN(CCOC(c3ccccc3)c3ccccc3)CC2)cc1 5.14

====

System: NIH3T3
Test: Cytotoxic Profiling of Annotated Libraries Using Quantitative High-Throughput Screening (AID 1296008); further: nearly all actives have a fitted effect of over 60% in size
Conditions: Five cell lines viability, CellTiter-Glo ATP luminescence, 48-72 h
Experimental: Cell-based phenotypic screening is a commonly used approach to discover biological pathways, novel drug targets, chemical probes and high-quality hit-to-lead molecules. […] A pintool (Kalypsys) was used to transfer 23 nL of compound solution to the 1536-well assay plates. […] Plates were left at room temperature for 10 min before imaging the ATP-coupled luminescence using a ViewLux microplate imager (PerkinElmer, Waltham, MA).
Records with an inconclusive call do not appear. Calls of active or inactive are those of the source. The call rests on the fitted dose curve; in most records, active means well fitted inhibition curve with a large enough effect; inconclusive means small, poorly fitted or top-dose-only effect; inactive means flat fitted curve, though single readings scatter.
One label from this list, please: active, inactive

substance_smiles=CCOC(=O)c1cncn1[C@H](C)c1ccccc1 system_under_test=NIH3T3 class=inactive
substance_smiles=Cc1ccccc1-n1c(Cn2ncc3c(N)ncnc32)nc2cccc(C)c2c1=O system_under_test=NIH3T3 class=inactive
substance_smiles=O=S(=O)(O)C(F)(F)C(F)(F)C(F)(F)C(F)(F)C(F)(F)C(F)(F)C(F)(F)C(F)(F)F system_under_test=NIH3T3 class=inactive
substance_smiles=O=[N+]([O-])c1ccc([As](=O)(O)O)cc1 system_under_test=NIH3T3 class=inactive
substance_smiles=C[C@@H]1CC[C@@]2(OC1)O[C@H]1C[C@H]3[C@@H]4CC=C5C[C@@H](O[C@@H]6O[C@H](CO)[C@@H](O[C@@H]7O[C@@H](C)[C@H](O)[C@@H](O)[C@@H]7O)[C@H](O)[C@@H]6O[C@@H]6O[C@@H](C)[C@H](O)[C@@H](O)[C@@H]6O)CC[C@]5(C)[C@@H]4CC[C@]3(C)[C@@H]1[C@H]2C system_under_test=NIH3T3 class=active

Can you look up the reported call for c1cc2c(cc1[C@H]1OC[C@H]3[C@H]1CO[C@H]3c1ccc3c(c1)OCO3)OCO2 for me? inactive

Can you look up the reported call for CC1=NN=C(c2ccc(N)cc2)c2cc3c(cc2C1)OCO3 for me? inactive

Can you look up the reported call for CC[C@H]1C=CC=CC[C@@H](C)[C@H](O)[C@@](C)(O)C(=O)[C@@H](C)[C@H](O)[C@@H](C)C(=O)[C@@H](C)[C@H](O)[C@@H](C)C=CC(=O)O[C@@H]2[C@@H](C)[C@H](CC1)O[C@]1(CC[C@H](C)[C@H](C[C@@H](C)O)O1)[C@H]2C for me? active

Can you look up the reported call for CC(C)N(CCNC(=O)CN1CCCC1=O)C(C)C for me? inactive

Can you look up the reported call for CC[C@@]1(O)C(=O)OCc2c1cc1n(c2=O)Cc2cc3ccccc3nc2-1 for me? active

Can you look up the reported call for CC1=C(O)C(=O)C=C2C1=CC=C1[C@@]2(C)CC[C@@]2(C)[C@@H]3C[C@](C)(C(=O)O)CC[C@]3(C)CC[C@]12C for me? active
